Target: E3 ubiquitin-protein ligase XIAP (Homo sapiens)
Test: XIAP binders, primary screen, biophysical, small-molecule microarray, fluorescence 635 nm (AID 1181);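 further: score merges 667 nm emission and signal to noise over triplicate slides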
Settings: small-molecule microarray binding, higher = more signal
Think of 0.08 as a floor: if composite z-score stands on it or above, it is class 1; beneath it, class 0.

Query :: Is reported composite z-score greater than or equal to 0.08 here: O=C1c2ccccc2[C@@]2(Cc3ccccc3N(CC(F)(F)F)C2=O)[C@H](c2ccc(CO)cc2)N1Cc1ccccc1Cl
Result :: class 1

Query :: Would you say CC[C@@H]1C=C(C(=O)O)[C@H](c2ccco2)N1S(=O)(=O)c1ccc(C)cc1 shows composite z-score at minimum 0.08?
Result :: class 1

Query :: Test whether the compound COc1ccc([Si](C)(C)[C@H]2[C@H](CC(=O)N3CCC[C@H]3CO)O[C@@]3(C(=O)N(Cc4cccc(N5C(=O)c6cccc7cccc5c67)c4)c4ccccc43)[C@@H]2C)cc1 records composite z-score of 0.08 or higher.
Result :: class 0

Query :: Does the compound CC(C)(C)OC(=O)CC[C@]12N=C(c3ccc(OCCCO)cc3)O[C@H]1c1ccccc1N(CCS(=O)(=O)c1ccccc1)C2=O have recorded composite z-score that is 0.08 or more?
Result :: class 0

Query :: Entry COCCOC(=O)N1C(=O)[C@@]2(c3cc(C#CCCO)ccc31)[C@H](C(=O)Nc1nc3ccccc3s1)[C@H]1C(=O)O[C@H](c3ccccc3)[C@H](c3ccccc3)N1[C@@H]2c1ccc(OCCO)cc1 : is its composite z-score no less than 0.08?
Result :: class 1

Query :: Has C=CC[C@]1(C(=O)NCCCOC)N=C(c2ccc(OCCCO)cc2)O[C@H]1c1ccccc1N=[N+]=[N-] a recorded composite z-score greater than or equal to 0.08?
Result :: class 1

Query :: Dear colleague, could you confirm whether C#CCN(CC=C(C)C)[C@H](CO)c1ccccc1 has composite z-score at or above 0.08?
Result :: class 0

----------
Tested on: Inhibin beta A chain (activin A)
Assay: INHBA (activin A) binders on microarrays, primary screen, biochemical, small-molecule microarray, 635 nm fluorescence scan (AID 1107);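 further: mouse activin A protein probed at 4.33 µg/mL on printed slides; score merges bound-protein fluorescence near 667 nm with spot signal-to-noise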
Settings: small-molecule microarray binding, higher = more signal
Measured endpoint: composite z-score
The answer should be written as a number, with no unit following it.

Query :: Look up composite z-score: C=CCOC(=O)[C@@H]1[C@H]2C(=O)O[C@H](c3ccccc3)[C@H](c3ccccc3)N2[C@H](c2ccc(OCCOC(=O)[C@@H]3C[C@@H]4C(=O)N[C@@H](CCCC[N+](C)(C)C)C(=O)N4[C@@H]3c3cccc(OCCO)c3)cc2)[C@@]12C(=O)Nc1ccc(I)cc12
Result :: 0.195

Query :: I have this molecule here, CCCC#C[Si](O[C@H](CC)c1cn([C@H](CO)Cc2ccccc2)nn1)(C(C)C)C(C)C , and I need its recorded composite z-score.
Result :: -0.253

Query :: Request the reported composite z-score associated with CCOC(=O)C[C@H]1[C@H](OC(=O)Cc2ccc3c(c2)OCO3)[C@@H](NC(=O)c2ccc(-c3ccccc3)cc2)c2cc(OCCCO)ccc2N1C(=O)Cc1ccc(OC)cc1
Result :: 0.0884

Query :: What value of composite z-score has been recorded for this entry: CCOC(=O)[C@H]1CC=C2CC1C(=O)N1CCC[C@@H]1[C@@H]2O[Si](C)(C)C(C)(C)C (some centres not stated)
Result :: 0.928

Query :: Which value of composite z-score has been reported for CC(C)C(=C=CC[C@@H](O)c1ccccc1OCCO)CCO in the records?
Result :: 0.434

Query :: Quick one: composite z-score for CN1C(=O)C2C=CC(C(O)C3=C[C@H]4C[C@@H](C3)C4(C)C)N(Nc3ccccc3)C2C1=O (some centres not stated) ?
Result :: 1.42

Query :: Could you tell me which composite z-score is on file for [N-]=[N+]=NCc1ccccc1C[C@]1(C(=O)N2CCOCC2)N=C(c2ccc(OCCCO)cc2)O[C@H]1c1ccccc1N=[N+]=[N-] ?
Result :: 0.878

----------
Experiment: HepG2 liver cancer cell viability effects, profiling panel, resazurin fluorescence, 24 h, PK04 Diversity Set (AID 1172); further: test concentration not given here
Details: higher = more signal
Measured endpoint: z-score
Reply: number alone, nothing else.

Query :: Fill in the blank: the reported z-score of O=C1NC(=O)C2C1C=CC(C(O)Cc1ccccc1)N2Nc1ccc(Cl)cc1Cl (centres undefined) is ____.
Result :: -0.985

Query :: What value of measured z-score is listed for [N-]=[N+]=NCc1ccccc1C[C@@]1(C(=O)NCC(O)CO)N=C(c2ccc(OCCCO)cc2)O[C@@H]1c1ccccc1N=[N+]=[N-] (some centres undefined) ?
Result :: -2.35

Query :: Return reported z-score; argument: COC(=O)c1c(CC[C@@H](CO)NC(=O)N[C@H](Cn2cc(Cc3ccccc3)nn2)C(C)C)oc(C(C)=O)c1C(=O)OC
Result :: -0.61

Query :: I have this compound here, CCOC(=O)C1=CCC(c2ccccc2)N(S(=O)(=O)CC[Si](C)(C)C)C1 (centres undefined) , and I need its recorded z-score.
Result :: 1.17

----------
Target: NADPH oxidase 5 (Homo sapiens) (UniProt Q96PH1)
Sequence (Q96PH1 whole entry, looked up): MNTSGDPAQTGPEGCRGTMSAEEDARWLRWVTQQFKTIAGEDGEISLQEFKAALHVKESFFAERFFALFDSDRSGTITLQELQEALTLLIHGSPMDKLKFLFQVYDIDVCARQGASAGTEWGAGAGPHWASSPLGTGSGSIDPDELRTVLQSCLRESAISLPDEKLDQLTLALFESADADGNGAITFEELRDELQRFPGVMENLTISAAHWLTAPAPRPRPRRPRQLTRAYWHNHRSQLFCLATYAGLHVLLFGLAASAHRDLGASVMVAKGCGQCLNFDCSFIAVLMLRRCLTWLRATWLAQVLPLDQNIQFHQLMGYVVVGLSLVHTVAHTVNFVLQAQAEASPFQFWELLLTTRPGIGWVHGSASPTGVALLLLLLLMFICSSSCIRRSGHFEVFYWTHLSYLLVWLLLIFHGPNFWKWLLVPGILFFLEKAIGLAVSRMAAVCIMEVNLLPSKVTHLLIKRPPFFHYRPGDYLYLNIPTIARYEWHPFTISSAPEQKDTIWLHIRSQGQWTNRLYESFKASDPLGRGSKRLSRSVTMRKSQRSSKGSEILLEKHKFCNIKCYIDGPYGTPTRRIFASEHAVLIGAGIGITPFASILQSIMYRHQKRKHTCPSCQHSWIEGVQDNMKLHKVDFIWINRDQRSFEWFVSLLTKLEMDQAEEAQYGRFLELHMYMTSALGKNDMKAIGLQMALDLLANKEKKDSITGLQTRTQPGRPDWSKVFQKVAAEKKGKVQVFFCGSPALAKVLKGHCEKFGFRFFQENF
Assay: NOX5-dependent H2O2 signal modulators, primary screen, NOX inhibitor project, cell-based, HEK293-NOX5, Amplex Red fluorescence (AID 1161)
Conditions: HEK293-NOX5, ionomycin, 45 min, higher = more signal
# if value of z-score reaches -0.1, tag YES; if it stays below, tag NO

Query :: Is the recorded value of z-score equal to or greater than -0.1 for this compound? O=C1O[C@H](c2ccccc2)[C@H](c2ccccc2)N2[C@H]1[C@@H](C(=O)NC[C@H](O)c1ccccc1)[C@]1(C(=O)Nc3ccccc31)[C@H]2c1ccc(OCCO)cc1
Result :: YES

Query :: Tell me whether z-score is at least -0.1 here: CN(C)C(=O)[C@]1(Cc2ccccc2N=[N+]=[N-])N=C(c2ccc(OCCCO)cc2)O[C@@H]1c1ccccc1
Result :: NO

Query :: Does z-score meet or surpass -0.1 for C[N+](C)(C)CCCCNC(=O)[C@H]1C[C@H]2C(=O)N[C@@H](Cc3ccccc3)C(=O)N2[C@H]1c1ccc(O)cc1 ?
Result :: NO

Query :: # bool: z-score of CCc1oc(CC[C@@H](CO)NC(=O)NCCn2cc(C3(O)CCCCC3)nn2)c(C(=O)OC)c1C(=O)OC >= -0.1
Result :: NO

Query :: Hi team, for COC(=O)c1c(CC[C@@H](CO)NC(=O)N2CCC[C@H]2Cn2cc(-c3ccccn3)nn2)oc(C(C)=O)c1C(=O)OC , is the recorded z-score at or above -0.1?
Result :: NO

Query :: // inclusive: z-score at least -0.1? input: C=CCNC(=O)[C@H]1[C@@H]2C(=O)O[C@@H](c3ccccc3)[C@@H](c3ccccc3)N2[C@@H](c2ccc(O)cc2)[C@]12C(=O)N(C(=O)OCCOC)c1ccc(C#CCNC(N)=O)cc12
Result :: YES

Query :: Hello, I need to know if COC(=O)C=C(CC(O)c1cccc(Cl)c1)OC (stereo not given) has measured z-score not below -0.1. Thanks!
Result :: YES

Query :: Would you say COCCCN1C(=O)[C@@]2(c3ccc([N+](=O)[O-])cc3)CC(=O)N(C3CCCCC3)[C@@H]2c2ccc(CO)cc21 shows z-score at minimum -0.1?
Result :: NO

Query :: Tell me whether z-score is at least -0.1 here: Cc1ccc(C(C)CC(O)C2C=CC3C(=O)N(C)C(=O)C3N2NC(=O)OC(C)(C)C)o1 (stereo not given)
Result :: NO

Query :: Please tell me: is the compound CCCCN1CC=CC23O[C@@H]4C=CCOC(=O)[C@@H]4[C@H]2C(=O)N(CCCCCO)[C@@H]3C1=O (stereo not given in full) at or over -0.1 in terms of z-score?
Result :: YES

Query :: Could you tell me if the measured z-score of CC(C)N1C(=O)[C@@]2(Cc3ccccc31)c1ccccc1C(=O)N(C1CCCCC1)[C@H]2c1ccc(CO)cc1 reaches -0.1 or more?
Result :: NO

Query :: # bool: z-score of CCOC1=C2C(CN(S(=O)(=O)c3ccc(C)cc3)C2c2ccc(C)cc2)C2C(=O)N(c3ccccc3)C(=O)C2C1 (stereo not given) >= -0.1
Result :: NO

Query :: Entry CCOC(=O)C=Cc1cc([N+](=O)[O-])ccc1O : is its z-score no less than -0.1?
Result :: NO

Query :: Is reported z-score greater than or equal to -0.1 here: [N-]=[N+]=Nc1ccccc1C[C@]1(C(N)=O)N=C(c2ccc(OCCCO)cc2)O[C@H]1c1ccccc1
Result :: NO

Query :: For this compound, is measured z-score -0.1 or higher? NC(=O)[C@@H]1[C@H]2C(=O)O[C@H](c3ccccc3)[C@H](c3ccccc3)N2[C@H](c2ccc(O)cc2)[C@@]12C(=O)Nc1ccc(C#CC3(O)CCCCCC3)cc12
Result :: NO

All values here come from PubChem BioAssay.
